Test system: MDA-MB-231 breast
MEASUREMENT DESCRIPTION: NCI-60 one-dose screen, 48 h
STUDY CONDITIONS: 10 µM unless noted
This is part of a sample that, as a whole, favours compounds with a hit. Of some 83,000 tested, about 20% had one in any assay. Active and inactive are the calls of the source. Rule for the calls: active = growth percent below 10; inactive = the rest.
Give one outcome, nothing more. List: T = active, F = inactive

GET /call?item= C=CCn1cc(-c2nc3ccccc3s2)c2cc(-c3ccc4c5c(cccc35)C(=O)N(CCN3CCNCC3)C4=O)ccc21 returns the recorded outcome of this test. F

GET /call?item= CSc1nc2c(c(=O)[nH]1)C(c1ccc(C)cc1)C=C(C(=O)O)N2 (stereo unspecified) returns the recorded outcome of this test. F

GET /call?item= COc1cc(C2C3=C(COC3=O)Nc3cc4c(cc32)CCC4)cc2c1OCO2 (stereo unspecified) returns the recorded outcome of this test. F

GET /call?item= CCOc1cc2c(Cl)ncnc2c(OCC)c1OCC returns the recorded outcome of this test. F

GET /call?item= Cn1ncc2c(Sc3ccc(Cl)cc3)ncnc21 returns the recorded outcome of this test. F

GET /call?item= O=[N+]([O-])c1cc(S(=O)(=O)Oc2ccccc2)ccc1Cl returns the recorded outcome of this test. F

GET /call?item= NC(=O)CCCN1C/C(=C\c2ccccc2)C(=O)c2ccccc21 returns the recorded outcome of this test. F

GET /call?item= COc1ccc(C(=O)n2nc(/C=C/c3ccc(O)c(OC)c3)cc2/C=C/c2ccc(O)c(OC)c2)cc1 returns the recorded outcome of this test. F

GET /call?item= CC12CCC3C4(C)COC(c5ccco5)OC4CCC3(C)C1CC(C1=CCOC1=O)O2 (stereo unspecified) returns the recorded outcome of this test. F

GET /call?item= ClC(Cl)c1nc(-c2cccnc2)n2nc(-c3ccccc3)cc2n1 returns the recorded outcome of this test. F

GET /call?item= CC(C)CSc1nc(NN)c(C#N)c(-c2ccccc2)n1 returns the recorded outcome of this test. F

GET /call?item= CCCCCCCCCCCCNC(=O)[C@H]1CSC(c2cc(Br)cs2)N1 (stereo partly specified) returns the recorded outcome of this test. T

GET /call?item= c1coc(CNc2ccnc(Nc3ccc(OCCN4CCCCC4)cc3)n2)c1 returns the recorded outcome of this test. F
